assay type: in vivo, human; conditions: human, plasma, intravenous
measured_attribute: clearance (mL/min)
Dear colleague, please return just the value in mL/min, with no unit written.

Which value of clearance has been reported for Cc1ncc2n1-c1ccc(Cl)cc1C(c1ccccc1F)=NC2 [midazolam] in the records? 732
